- assay name: Cmax in Sprague-Dawley rat at 5 mg/kg, po measured upto 24 hrs by LC-MS/MS analysis
- Assay type: ADME, organism-based
- Set-up: dose 5 mg/kg, time < 24 hrs, route po
- condition: Sprague-Dawley, in vivo, read-out: Cmax
quantity: Cmax (ng/mL)
Give bare numbers, in ng/mL.

May I ask what Cmax has been recorded for "CCS(=O)(=O)NCc1ccc(Nc2ncc(C)c(-c3cnn(C(C)C)c3)n2)cc1" ?
77.8
